# TGT: BlaC (Mycobacterium tuberculosis)
# Construct: made in house; host or cells: E. coli
# Sequence (P9WKD3 35-307): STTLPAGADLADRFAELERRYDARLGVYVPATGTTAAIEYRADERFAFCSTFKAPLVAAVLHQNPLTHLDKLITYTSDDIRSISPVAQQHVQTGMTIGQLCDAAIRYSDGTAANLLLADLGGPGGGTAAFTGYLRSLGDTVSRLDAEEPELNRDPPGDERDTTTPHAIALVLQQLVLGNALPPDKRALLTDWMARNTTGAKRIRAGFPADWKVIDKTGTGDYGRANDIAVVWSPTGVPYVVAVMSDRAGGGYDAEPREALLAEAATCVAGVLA
# EXPERIMENTAL_DETAILS: BlaC fluorogenic inhibition assay with FC5 (dose-response)
# Format: biochemical
# STATED_CONDITIONS: Table S3 tool compounds; 10 min incubation; 2.5 nM BlaC, 2.5 µM FC5; n=4; read-out: pIC50 BlaC (mean ± SD) (converted)
QUANTITY: IC50 (nM)
Write down the numeric answer in nM and omit the unit.

Worked examples follow.
O=c1c2ccccc2[se]n1-c1ccccc1 = 1510
C[C@@H](O)[C@H]1C(=O)N2C(C(=O)O)=C([C@H]3CCCO3)S[C@H]12 = 447

Attention now shifts to the item below.
Given Cc1onc(-c2c(F)cccc2Cl)c1C(=O)N[C@@H]1C(=O)N2[C@@H]1SC(C)(C)[C@@H]2C(=O)O [Flucloxacillin, reference compound] , state its recorded IC50.
135

Reference source for all entries: paper PMC10321483
